Reference source for all entries: PubChem BioAssay (EPA / NIEHS)

Read-out: Intercellular Adhesion Molecule 1 (ICAM1), ICAM1 (gene 3383)
Assay: BSK_3C_ICAM1: BioMAP Diversity Plus: 3C Assay for Intercellular Adhesion Molecule 1 (ICAM1) Biomarker Activity (AID 2283003)
Details: primary human endothelial cells (HUVEC); actives raise or lower the signal
Protocol: BSK_3C is a cell-based, multiplexed-readout assay that uses umbilical vein endothelium, a human vascular primary cell, with measurements taken at 24 hours after chemical dosing in a 96-well plate.BSK_3C_ICAM1 is an assay component measured in the BSK_3C assay. It measures ICAM-1 antibody related to regulation of gene expression using ELISA technology.Data from the assay component BSK_3C_ICAM1 was analyzed into 1 assay endpoint. […]
The source made the active and inactive calls. How the source made its calls: active means hit-call score of the fitted dose curve at least 0.9, where 1 is the maximum; inactive means score below 0.9.
Bench note: report the call from Y = active, N = inactive

Worked examples follow.
Cc1cc2c3c(c1)C(c1ccccc1)=N[C@@H](NC(=O)c1ccncc1)C(=O)N3CC2; N
COc1ccc(O)c(C(C)(C)C)c1; N
ClC(Cl)=C(c1ccc(Cl)cc1)c1ccc(Cl)cc1; Y
Nn1cnnc1; N
C=CC(=O)NCNC(=O)C=C; N

Q: Each compound tested received a call. Report the one for ClC1=C(Cl)[C@]2(Cl)[C@@H]3[C@@H](Cl)[C@H]4O[C@H]4[C@@H]3C1(Cl)C2(Cl)Cl .
Result: N

Q: Each compound tested received a call. Report the one for CCCCCCCCOC(=O)c1ccccc1C(=O)OCCCCCCCC .
Result: N

----------
read-out: Transforming growth factor beta 1 (TGFb1), TGFB1 (gene 7040); assay: BSK_BE3C_TGFb1: BioMAP Diversity Plus: BE3C Assay for Transforming growth factor beta 1 (TGFb1) Biomarker Activity (AID 2283036;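 further: TGF-b1 protein level measured by ELISA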); details: primary human bronchial epithelial cells; actives raise or lower the signal
Active and inactive are the calls of the source. The calls were made as follows: active = hit-call score of the fitted dose curve at least 0.9, where 1 is the maximum; inactive = score below 0.9.
Bench note: report the call from 1 (yes) for active, 0 (no) for inactive

Worked examples follow.
C1CC2OC2CC1C1CO1 (stereo not given); 0 (no)
Cc1ccccc1[N+](=O)[O-]; 0 (no)
O=C(NC(=O)c1c(F)cccc1F)Nc1cc(Cl)c(OC(F)(F)C(F)F)c(Cl)c1; 0 (no)

Q: Each compound tested received a call. Report the one for Cc1ccc(O)c(C)c1 .
Result: 0 (no)

Q: Each compound tested received a call. Report the one for Cc1cc(O)ccc1Cl .
Result: 0 (no)

----------
read-out: growth arrest and DNA damage 45 (GADD45A), GADD45A (gene 1647); assay: LTEA_HepaRG_GADD45A: Life Technologies and Expression Analysis (LTEA) Assay for growth arrest and DNA damage 45 (GADD45A) using HepaRG (AID 2283458); settings: mRNA level, 48 h; actives raise or lower the signal
Calls of active or inactive are those of the source. How the source made its calls: active means hit-call score of the fitted dose curve at least 0.9, where 1 is the maximum; inactive means score below 0.9.
REPORTED PROPERTY: AC50

CCNc1nc(NC(C)C)nc(SC)n1; inactive
Cc1cccc(C)c1N; inactive
CCOCCOC(C)=O; inactive
Cc1ccccc1CO[C@@H]1C[C@@]2(C(C)C)CC[C@]1(C)O2; inactive
CO/C=C(/C(=O)OC)c1ccccc1COc1cccc(C(F)(F)F)n1; 9.39 µM (active)

Q: Entry under review: O=S(=O)(O)C(F)(F)C(F)(F)C(F)(F)C(F)(F)C(F)(F)C(F)(F)F . Reported AC50?
Result: inactive

----------
Assay: ACEA_ER_80hr: ACEA Biosciences xCELLigence Real-Time Cell Analysis on Estrogen Receptor Agonism for Proliferation (AID 2282667)
Conditions: T47D proliferation, impedance (xCELLigence), 80 h
Method: ACEA_ER is a cell-based, single-readout assay that uses T47D, a human breast cell line, with measurements taken at 80 hours after chemical dosing in a 96-well plate, although TO2 (mc0.srcf) used a 384-well plate. Differences in plate size can be ignored given data normalization.ACEA_ER_80hr is one of two assay component(s) measured or calculated from the ACEA_ER assay. […]
Inconclusive results are not listed. The source made the active and inactive calls. How the source made its calls: active means hit-call score of the fitted dose curve at least 0.9, where 1 is the maximum; inconclusive means response in the unintended direction; inactive means score below 0.9.
REPORTED PROPERTY: AC50

Here's what some known entries look like.
c1cc2ccc3cccc4ccc(c1)c2c34; inactive
Clc1ccc(Cl)cc1; inactive
CC(C)(c1ccccc1)c1ccc(O)cc1; 483 nM (active) [middle of 4 runs]
CCCCCCCCCc1ccc(O)cc1; inactive
Cc1cc2c3c(c1)C(c1ccccc1)=N[C@@H](NC(=O)c1ccncc1)C(=O)N3CC2; inactive

Q: Entry under review: ClC1=C(Cl)[C@]2(Cl)[C@@H]3[C@H]4C[C@H]([C@@H]5O[C@H]45)[C@@H]3[C@@]1(Cl)C2(Cl)Cl . Reported AC50?
Result: 50 µM (active)

Q: Entry under review: CC(c1ccc(O)cc1)(c1ccc(O)cc1)c1ccc(O)cc1 . Reported AC50?
Result: 1.54 µM (active)
